meta.source: patent US7968601B2

target under test: 11b-HSD1 (Mus musculus, UniProt P50172)
Construct: endogenous in cells
Sequence (P50172 whole entry): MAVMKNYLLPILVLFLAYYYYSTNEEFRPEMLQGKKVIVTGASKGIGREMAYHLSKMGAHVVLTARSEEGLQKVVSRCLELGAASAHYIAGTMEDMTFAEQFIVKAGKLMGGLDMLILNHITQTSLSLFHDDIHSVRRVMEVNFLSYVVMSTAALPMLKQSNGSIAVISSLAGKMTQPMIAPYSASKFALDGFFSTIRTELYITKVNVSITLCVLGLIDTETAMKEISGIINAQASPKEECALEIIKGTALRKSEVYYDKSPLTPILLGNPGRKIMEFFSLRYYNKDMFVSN
protocol text: Cellular assay, 11b-HSD1 activity in differentiated 3T3-L1 cells
condition context: 4 hour pre-incubation, pIC50 scored 1-3, read-out: [C2] HSD1 cellular 3T3-L1 Score
pIC50: −log10 of the molar value.
quantity measured: pIC50

See these solved cases before continuing.
{"molecule": "O=C(NC1C2CC3CC(C2)CC1C3)C1=CCCc2c(Br)cccc21 (centres unmarked)", "pIC50": "> 6.00"}
{"molecule": "CC(C)(C(=O)N[C@H]1[C@@H]2CC3C[C@H]1C[C@](O)(C3)C2)c1cccc(OCCN2CCOCC2)c1", "pIC50": "> 6.00"}
{"molecule": "Cc1cc(CCC(=O)O)cc(C(C)(C)C(=O)N[C@H]2[C@@H]3CC4C[C@H]2C[C@](F)(C4)C3)c1", "pIC50": "> 6.00"}
{"molecule": "CCOC(=O)CCc1cccc(C(C)(C)C(=O)NC2C3CC4CC(C3)CC2C4)c1 (centres unmarked)", "pIC50": "> 6.00"}
{"molecule": "CC1C(NC(=O)C2(c3ccccc3)CC2)CC2CC1C2(C)C (centres unmarked)", "pIC50": "5.00 to 6.00"}

I have 3 molecules here; please give me pIC50 for each one.
1. CCCOc1cccc(C(C)(C)C(=O)NC2C3CC4CC(C3)CC2C4)c1 (centres unmarked)
2. CC1CCCCC1NC(=O)C1(c2ccccc2)CC1 (centres unmarked)
3. Cc1cccc(C(C)(C)C(=O)NC2C3CC4CC(C3)CC2C4)c1 (centres unmarked)

## Result
["> 6.00", "5.00 to 6.00", "> 6.00"]

----------
target under test: 11b-HSD2 (Homo sapiens)
Sequence (P80365 whole entry): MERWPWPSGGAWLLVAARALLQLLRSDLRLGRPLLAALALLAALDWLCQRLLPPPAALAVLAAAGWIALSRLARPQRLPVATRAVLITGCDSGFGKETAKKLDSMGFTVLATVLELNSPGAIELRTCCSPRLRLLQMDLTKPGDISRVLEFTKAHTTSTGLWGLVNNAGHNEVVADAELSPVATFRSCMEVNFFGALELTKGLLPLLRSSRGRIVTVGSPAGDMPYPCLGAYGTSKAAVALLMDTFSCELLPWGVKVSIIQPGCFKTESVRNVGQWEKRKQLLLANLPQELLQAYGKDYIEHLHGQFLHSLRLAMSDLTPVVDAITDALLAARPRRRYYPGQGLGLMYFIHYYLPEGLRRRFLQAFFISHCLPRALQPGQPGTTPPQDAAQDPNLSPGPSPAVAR
protocol text: Cellular assay, 11b-HSD2 activity in HepG2 cells
Assay type: cell-based
Set-up: endogenous in cells; host or cells: HepG2 (ATCC HB-8065)
condition context: 4 hour pre-incubation, pIC50 scored 1-3, read-out: [C2] HSD2 cellular HepG2 Score
pIC50: −log10 of the molar value.
quantity measured: pIC50

Example entries and their recorded answers appear below.
{"compound": "CC(C)(C(=O)NC1C2CC3CC(C2)CC1C3)c1cc(F)ccc1F (stereo not drawn)", "pIC50": "< 5.00"}
{"compound": "CC(C)(C(=O)NC1C2CC3CC(C2)CC1C3)c1cccc(C(F)(F)F)c1 (stereo not drawn)", "pIC50": "< 5.00"}
{"compound": "CCC(C(=O)NC1C2CC3CC(C2)CC1C3)c1ccccc1 (stereo not drawn)", "pIC50": "< 5.00"}

For each of the items listed, what is its pIC50?
1. Cc1cc(C)cc(C(C)(C)C(=O)NC2C3CC4CC(C3)CC2C4)c1 (stereo not drawn)
2. O=C(N[C@H]1[C@@H]2CC3C[C@H]1C[C@](O)(C3)C2)C1CCc2ccccc2C1 (stereo partly drawn)
3. CC(C)(C(=O)NC1C2CC3CC(C2)CC1C3)c1ccc(F)cc1F (stereo not drawn)
4. CN(Cc1ccccc1)c1ccc(C(C)(C)C(=O)NC2C3CC4CC(C3)CC2C4)cc1 (stereo not drawn)
5. COc1cccc2c1OCC=C2C(=O)NC1C2CC3CC(C2)CC1C3 (stereo not drawn)
6. CC(=Cc1ccccc1)C(=O)NC1C2CC3CC(C2)CC1C3 (stereo not drawn)
7. CC(C)(C(=O)N[C@H]1[C@@H]2CC3C[C@H]1C[C@](O)(C3)C2)c1cccc(OCCN2CCOCC2)c1
8. COc1cccc(C(C)(C)C(=O)NC2CCC3CCCC2C3)c1 (stereo not drawn)

## Result
< 5.00
< 5.00
< 5.00
< 5.00
< 5.00
< 5.00
< 5.00
< 5.00

Please report pIC50 for every entry that follows.
1. CC1=C(C(=O)NC2C3CC4CC(C3)CC2C4)Cc2ccccc21 (stereo not drawn)
2. CCOC(=O)CCc1cccc(C(C)(C)C(=O)NC2C3CC4CC(C3)CC2C4)c1 (stereo not drawn)
3. CC(C)(C(=O)NC1C2CC3CC(C2)CC1C3)c1cccc(F)c1 (stereo not drawn)
4. Cc1cc(CCC(=O)O)cc(C(C)(C)C(=O)N[C@H]2[C@@H]3CC4C[C@H]2C[C@](F)(C4)C3)c1
5. CC(C)(C(=O)NC1C2CC3CC(C2)CC1C3)c1cccc(/C=C/C(=O)OCc2ccccc2)c1 (stereo not drawn)
6. O=C(NC1C2CC3CC(C2)CC1C3)C1CCc2ccccc2N1 (stereo not drawn)

## Result
1: < 5.00; 2: < 5.00; 3: < 5.00; 4: < 5.00; 5: < 5.00; 6: < 5.00
